# assayDetails: Antiproliferative activity against human SK-UT-1B cells assessed as cell growth inhibition after 48 hrs by MTT assay
# Type: functional, cell-based
# assaySetup: Skut1B
pIC50: −log10 of the molar value.
Entries and their pIC50
measuredProperty: pIC50

compound | measuredProperty | result
Nc1nc(Cl)nc2c1ncn2[C@H]1C[C@H](O)[C@@H](CO)O1 | pIC50 | 6.00
CCCCCCCCCCCCCC(=O)OCC(COC(=O)CCCCCCCCCCCCC)OP(=O)([O-])OC[C@H]1O[C@@H](n2cnc3c(N)nc(F)nc32)[C@@H](O)[C@@H]1O.[Na+] | pIC50 | < 4.00
CCCCCCCCCCCCCCCC(=O)OCC(COC(=O)CCCCCCCCCCCCCCC)OP(=O)([O-])OC[C@H]1O[C@@H](n2cnc3c(N)nc(F)nc32)[C@@H](O)[C@@H]1O.[Na+] | pIC50 | < 4.00
CCCCCCCCCCCCCC(=O)OCC(COP(=O)([O-])OC[C@H]1O[C@@H](n2cnc3c(N)nc(F)nc32)[C@@H](O)[C@@H]1O)OC(=O)CCCCCCCCCCCCC.[Na+] (some centres not stated) | pIC50 | < 4.00
Nc1nc(F)nc2c1ncn2[C@@H]1O[C@H](COP(=O)(O)O)[C@@H](O)[C@@H]1O [FLUDARABINE PHOSPHATE] | pIC50 | 5.22
CCCCCCCCCCCCCC(=O)OCC(COP(=O)(O)OC[C@H]1O[C@@H](n2cnc3c(N)nc(Cl)nc32)C[C@@H]1O)OC(=O)CCCCCCCCCCCCC (some centres not stated) | pIC50 | < 4.00
CCCCCCCCCCCCCCCC(=O)OCC(COP(=O)([O-])OC[C@H]1O[C@@H](n2cnc3c(N)nc(F)nc32)[C@@H](O)[C@@H]1O)OC(=O)CCCCCCCCCCCCCCC.[Na+] (some centres not stated) | pIC50 | < 4.00

###

# Test system: Raji
# assayDetails: Antiproliferative activity against human Raji cells assessed as cell growth inhibition after 48 hrs by MTT assay
# Format: functional, cell-based
Entries and their IC50

compound | measuredOn | IC50
Nc1nc(F)nc2c1ncn2[C@@H]1O[C@H](COP(=O)(O)O)[C@@H](O)[C@@H]1O [FLUDARABINE PHOSPHATE] | Raji | 0.4 µM
CCCCCCCCCCCCCCCC(=O)OCC(COP(=O)([O-])OC[C@H]1O[C@@H](n2cnc3c(N)nc(F)nc32)[C@@H](O)[C@@H]1O)OC(=O)CCCCCCCCCCCCCCC.[Na+] (stereo not given in full) | Raji | > 100 µM
CCCCCCCCCCCCCC(=O)OCC(COC(=O)CCCCCCCCCCCCC)OP(=O)([O-])OC[C@H]1O[C@@H](n2cnc3c(N)nc(F)nc32)[C@@H](O)[C@@H]1O.[Na+] | Raji | > 100 µM
CCCCCCCCCCCCCCCC(=O)OCC(COC(=O)CCCCCCCCCCCCCCC)OP(=O)([O-])OC[C@H]1O[C@@H](n2cnc3c(N)nc(F)nc32)[C@@H](O)[C@@H]1O.[Na+] | Raji | > 100 µM
CCCCCCCCCCCCCC(=O)OCC(COP(=O)([O-])OC[C@H]1O[C@@H](n2cnc3c(N)nc(F)nc32)[C@@H](O)[C@@H]1O)OC(=O)CCCCCCCCCCCCC.[Na+] (stereo not given in full) | Raji | > 100 µM

###

# assayDetails: Antiproliferative activity against human SK-UT-1B cells assessed as cell growth inhibition after 72 hrs by MTT assay
# Format: functional, cell-based
# assaySetup: Skut1B

itemSmiles | IC50, µM
CCCCCCCCCCCCCC(=O)OCC(COC(=O)CCCCCCCCCCCCC)OP(=O)([O-])OC[C@H]1O[C@@H](n2cnc3c(N)nc(F)nc32)[C@@H](O)[C@@H]1O.[Na+] | 55
